Target: mutEGFR (D770_N771insNPG, T790)
Sequence (P00533 with tags, fused parts or gaps INS770NPG limits assumed): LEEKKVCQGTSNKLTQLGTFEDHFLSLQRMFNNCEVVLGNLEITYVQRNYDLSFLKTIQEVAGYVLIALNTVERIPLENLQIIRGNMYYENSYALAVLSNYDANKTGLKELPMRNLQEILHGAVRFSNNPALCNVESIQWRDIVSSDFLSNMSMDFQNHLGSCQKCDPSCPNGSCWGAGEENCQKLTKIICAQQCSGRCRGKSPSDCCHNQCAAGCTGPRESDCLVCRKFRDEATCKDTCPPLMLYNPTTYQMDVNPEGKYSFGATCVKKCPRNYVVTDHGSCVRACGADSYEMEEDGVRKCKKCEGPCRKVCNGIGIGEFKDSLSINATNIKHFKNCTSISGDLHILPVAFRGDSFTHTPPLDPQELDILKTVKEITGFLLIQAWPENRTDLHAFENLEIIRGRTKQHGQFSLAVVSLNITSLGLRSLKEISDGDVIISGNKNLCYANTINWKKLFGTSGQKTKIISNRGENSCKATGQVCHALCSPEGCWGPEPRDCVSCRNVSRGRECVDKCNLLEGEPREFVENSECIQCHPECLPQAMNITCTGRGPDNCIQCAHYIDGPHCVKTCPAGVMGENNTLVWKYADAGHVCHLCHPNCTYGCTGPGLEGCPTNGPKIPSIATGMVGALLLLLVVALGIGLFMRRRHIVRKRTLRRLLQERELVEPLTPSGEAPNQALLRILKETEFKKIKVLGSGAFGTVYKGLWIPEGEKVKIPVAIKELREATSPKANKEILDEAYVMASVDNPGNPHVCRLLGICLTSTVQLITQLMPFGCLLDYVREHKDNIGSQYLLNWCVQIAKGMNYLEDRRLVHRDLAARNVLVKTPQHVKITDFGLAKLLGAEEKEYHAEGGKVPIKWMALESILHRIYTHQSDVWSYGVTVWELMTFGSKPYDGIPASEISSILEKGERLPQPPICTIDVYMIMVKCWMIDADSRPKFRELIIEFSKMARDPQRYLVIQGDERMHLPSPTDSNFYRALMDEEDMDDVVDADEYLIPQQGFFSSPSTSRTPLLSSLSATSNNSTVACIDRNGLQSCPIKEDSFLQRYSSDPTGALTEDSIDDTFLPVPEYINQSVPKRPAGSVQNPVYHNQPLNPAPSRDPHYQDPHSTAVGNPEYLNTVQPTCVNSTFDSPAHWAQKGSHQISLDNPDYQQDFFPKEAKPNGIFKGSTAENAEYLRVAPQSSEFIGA
Assay: mutEGFR (D770_N771insNPG, T790) kinase assay
pIC50: −log10 of the molar value.
Overview of recorded pIC50 for various compounds

compound | pIC50
C=CC(=O)N1CCOCC1COc1cnccc1-c1[nH]c2cccnc2c1-c1cc(Cl)ccc1F (stereo not shown) | 7.09
C=CS(=O)(=O)N(C)CCOc1cnccc1-c1[nH]c2cccnc2c1-c1cc(OC)ccc1F | 7.55
C=CC(=O)N1CCC(Oc2cnccc2-c2[nH]c3cccnc3c2-c2cc(Cl)ccc2F)C1 (racemic) | 7.01
C=CS(=O)(=O)N1CCC1(C)COc1cnccc1-c1[nH]c2cccnc2c1-c1cccc(C(F)(F)F)c1 (racemic) | 6.20

###

Molecular target: mutEGFR (D770_N771insNPG, T790)
Experiment: mutEGFR (D770_N771insNPG, T790) kinase assay
pIC50: −log10 of the molar value.

molecule | measured on | pIC50
C=CC(=O)N(C)CCOc1cnccc1-c1[nH]c2cccnc2c1-c1cccc(Cl)c1OC [Example 21] | mutEGFR (D770_N771insNPG, T790) | 5.65
C=CC(=O)N1C[C@@H](F)C[C@H]1COc1cnccc1-c1[nH]c2cccnc2c1-c1ccccc1 [Example 114] | mutEGFR (D770_N771insNPG, T790) | 8.36
C=CC(=O)N(C)CCOc1cnccc1-c1[nH]c2cccnc2c1-c1cc(C)ccc1F [Example 47] | mutEGFR (D770_N771insNPG, T790) | 7.71
C=CC(=O)NCCOc1cnccc1-c1[nH]c2cccnc2c1-c1ccccc1 [Example 2] | mutEGFR (D770_N771insNPG, T790) | 6.12
C=CC(=O)N1CCC[C@H]1COc1cncc(F)c1-c1[nH]c2cccnc2c1-c1ccccc1 [Example 109] | mutEGFR (D770_N771insNPG, T790) | 7.08
C=CS(=O)(=O)N(C)CCOc1cnccc1-c1[nH]c2cccnc2c1-c1cccc(OC)c1 [Example 69] | mutEGFR (D770_N771insNPG, T790) | 8.06
C#CC(=O)N(C)CCOc1cnccc1-c1[nH]c2cccnc2c1-c1ccccc1 [Example 27] | mutEGFR (D770_N771insNPG, T790) | 7.16
C=C(F)C(=O)N1CCC[C@H]1COc1cnccc1-c1[nH]c2cccnc2c1-c1ccccc1 [Example 91] | mutEGFR (D770_N771insNPG, T790) | 6.11
C=CC(=O)N1CCC[C@H]1COc1cnccc1-c1[nH]c2cccnc2c1-c1cccc(CC)c1 [Example 78] | mutEGFR (D770_N771insNPG, T790) | 8.53
C=CS(=O)(=O)N1CCC[C@H]1COc1cnccc1-c1[nH]c2cccnc2c1-c1cccc(Cl)c1 [Example 40] | mutEGFR (D770_N771insNPG, T790) | 9.54
C=CC(=O)N(C)CCOc1cnccc1-c1[nH]c2cccnc2c1-c1cc(F)cc(F)c1 [Example 52] | mutEGFR (D770_N771insNPG, T790) | 6.69
C=CC(=O)N(C)CCOc1cnccc1-c1[nH]c2cccnc2c1-c1ccccc1OC [Example 17] | mutEGFR (D770_N771insNPG, T790) | 5.77
C=CS(=O)(=O)N1CC[C@H]1COc1cnccc1-c1[nH]c2cccnc2c1-c1cccc(C(F)(F)F)c1 (single isomer, unassigned) [Example 144] | mutEGFR (D770_N771insNPG, T790) | 7.72
C#CC(=O)N1CCC(Oc2cnccc2-c2[nH]c3cccnc3c2-c2cccc(Cl)c2)C1 (racemic) [Example 120] | mutEGFR (D770_N771insNPG, T790) | 7.01
C=CS(=O)(=O)N(C)CCOc1cnccc1-c1[nH]c2cccnc2c1-c1ccc2ccsc2c1 [Example 62] | mutEGFR (D770_N771insNPG, T790) | 8.48
C=CC(=O)N1CCC1(C)COc1cnccc1-c1[nH]c2cccnc2c1-c1cccc(C(F)(F)F)c1 (stereo not drawn) [Example 147] | mutEGFR (D770_N771insNPG, T790) | 5.43
C=CS(=O)(=O)N(C)CCOc1cnccc1-c1[nH]c2cccnc2c1-c1ccccc1 [Example 25] | mutEGFR (D770_N771insNPG, T790) | 8.68
C=CC(=O)N1C[C@@H](N(C)CCN(C)C)C[C@H]1COc1cnccc1-c1[nH]c2cccnc2c1-c1ccccc1 (single isomer, unassigned) [Example 131] | mutEGFR (D770_N771insNPG, T790) | 8.45
